Entry source: PubChem BioAssay AID2060508

system: 454973-116-R2-J3-PDC spheroids, viability, % test/control; test: Anticancer human tumor 454973-116-R2-J3-PDC patient-derived pancreatic carcinoma cell line growth inhibition [GQUAD]; settings: curve of first compound; second compound 1 µM; spheroids with HUVEC and MSC
Assign pIC50 to each entry below.
// pIC50: -log10(molar conc.)

Qu. Quick check: pIC50 of CC1COCCN1c1cc(C2(S(C)(=N)=O)CC2)nc(-c2ccnc3[nH]ccc23)n1 (stereo unspecified) + Cc1cnc(CNC(=O)c2c(=O)c3ccc(N4CCCN(C)CC4)nc3n3c2sc2ccccc23)cn1 ?
Ans. 5.83

Qu. Which value of pIC50 has been reported for COc1cccc2c1C(=O)c1c(O)c3c(c(O)c1C2=O)CC(O)(C(=O)CO)CC3OC1CC(N)C(O)C(C)O1 (stereo unspecified) + Cc1cnc(CNC(=O)c2c(=O)c3ccc(N4CCCN(C)CC4)nc3n3c2sc2ccccc23)cn1 in the records?
Ans. 6.13

Qu. GET /values?readout=pIC50&item= COc1cccc2c1C(=O)c1c(O)c3c(c(O)c1C2=O)CC(O)(C(=O)CO)CC3OC1CC(N)C(O)C(C)O1 (stereo unspecified) + Cc1[nH]c2ccc(F)cc2c1-c1nc2c3cccnc3c3ncccc3c2[nH]1
Ans. 6.84

Qu. Recorded pIC50 for CC(C)(O)C1CCC(Nc2ccc3ncc(-c4cccc(C(F)(F)F)c4)n3n2)CC1 (stereo unspecified) + Cc1[nH]c2ccc(F)cc2c1-c1nc2c3cccnc3c3ncccc3c2[nH]1 , please?
Ans. 5.80

Qu. What value of measured pIC50 is listed for CC1COCCN1c1cc(C2(S(C)(=N)=O)CC2)nc(-c2ccnc3[nH]ccc23)n1 (stereo unspecified) + Cc1[nH]c2ccc(F)cc2c1-c1nc2c3cccnc3c3ncccc3c2[nH]1 ?
Ans. 5.19

Qu. Report pIC50 for CCCS(=O)(=O)Nc1ccc(F)c(C(=O)c2c[nH]c3ncc(-c4ccc(Cl)cc4)cc23)c1F + Cc1cnc(CNC(=O)c2c(=O)c3ccc(N4CCCN(C)CC4)nc3n3c2sc2ccccc23)cn1 please.
Ans. 5.37

---

tested on: 454973-116-R2-J3-PDC spheroids, viability, % test/control; assay: Anticancer human tumor 454973-116-R2-J3-PDC cell line growth inhibition [GQUAD]; conditions: second compound 3.16 µM; first compound 10 µM; spheroids with HUVEC and MSC; active = viability on the fitted dose curve at most 10% of control; inactive = the rest;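 also: spheroids exposed to compounds for seven days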
Select the matching outcome among active, inactive

Qu. Give the logged outcome of this assay for the following compound: COc1ncnc(C2CC2)c1-c1ncc2cnn(Cc3ccc(-c4nc(C(F)(F)F)cn4C(C)C)cc3)c2n1 + Cc1[nH]c2ccc(F)cc2c1-c1nc2c3cccnc3c3ncccc3c2[nH]1
Ans. inactive

Qu. Kindly provide the recorded test outcome for the following compound: O=C(c1cc(Cc2n[nH]c(=O)c3ccccc23)ccc1F)N1CCN(C(=O)C2CC2)CC1 + Cc1cnc(CNC(=O)c2c(=O)c3ccc(N4CCCN(C)CC4)nc3n3c2sc2ccccc23)cn1
Ans. inactive

Qu. What classification did COc1ccc([C@@H](O)c2cc(-c3ncnc4cc(N5CCOCC5)ccc34)c(F)cc2Cl)nn1 + CN(C)c1ccc(Nc2c3ccc(NC(=O)CCN4CCCC4)cc3nc3cc(NC(=O)CCN4CCCC4)ccc23)cc1 end up with in this test?
Ans. inactive

Qu. Please share the test call associated with CC(=O)O[C@H]1C(=O)[C@@]2(C)[C@H]([C@H](OC(=O)c3ccccc3)[C@]3(O)C[C@H](OC(=O)[C@H](O)[C@@H](NC(=O)c4ccccc4)c4ccccc4)C(C)=C1C3(C)C)[C@]1(OC(C)=O)CO[C@@H]1C[C@@H]2O + CN(C)c1ccc(Nc2c3ccc(NC(=O)CCN4CCCC4)cc3nc3cc(NC(=O)CCN4CCCC4)ccc23)cc1 .
Ans. active

Qu. Please share the test call associated with C#Cc1c(F)ccc2cc(O)cc(-c3ncc4c(N5CC6CCC(C5)N6)nc(OCC56CCCN5CC(F)C6)nc4c3F)c12 (stereo not given) + CN(C)c1ccc(Nc2c3ccc(NC(=O)CCN4CCCC4)cc3nc3cc(NC(=O)CCN4CCCC4)ccc23)cc1 .
Ans. inactive

---

Record form. Attribute: pIC50. Fill in for each entry.
tested on: 454973-116-R2-J3-PDC spheroids, viability, % test/control; experiment: Anticancer human tumor 454973-116-R2-J3-PDC cell line growth inhibition [GQUAD]; settings: curve of first compound; second compound 0.0316 µM; spheroids with HUVEC and MSC;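 also: spheroids exposed to compounds for seven days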
Expect pIC50 as a plain number equal to -log10 of the molar concentration.

Qu. What value of pIC50 has been reported for the following molecule? CC(C)(O)C1CCC(Nc2ccc3ncc(-c4cccc(C(F)(F)F)c4)n3n2)CC1 (stereo unspecified) + CN(C)c1ccc(Nc2c3ccc(NC(=O)CCN4CCCC4)cc3nc3cc(NC(=O)CCN4CCCC4)ccc23)cc1
Ans. 5.75

Qu. # query: pIC50 of entry C=CCn1c(=O)c2cnc(Nc3ccc(N4CCN(C)CC4)cc3)nc2n1-c1cccc(C(C)(C)O)n1 + Cc1[nH]c2ccc(F)cc2c1-c1nc2c3cccnc3c3ncccc3c2[nH]1
Ans. 6.44

Qu. pIC50 lookup needed for O=c1[nH]cc(F)c(=O)[nH]1 + Cc1cnc(CNC(=O)c2c(=O)c3ccc(N4CCCN(C)CC4)nc3n3c2sc2ccccc23)cn1 , thanks.
Ans. 5.79

---

Provide the recorded viability, T/C for the entries that follow.
tested on: 454973-116-R2-J3-PDC spheroids, viability, % test/control; test: Anticancer human tumor 454973-116-R2-J3-PDC cell line growth inhibition [GQUAD]; conditions: second compound 10 µM; first compound 0.00999 µM; stronger effect = lower value; spheroids with HUVEC and MSC;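 also: spheroids exposed to compounds for seven days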;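 as to viability, T/C: 100% = DMSO vehicle control viability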
# unit: % | format: bare number

Qu. Provide value of viability, T/C for this record tested with 454973-116-R2-J3-PDC spheroids, viability, % test/control: Cn1ncnc1[C@H]1c2n[nH]c(=O)c3cc(F)cc(c23)N[C@@H]1c1ccc(F)cc1 + Cc1cnc(CNC(=O)c2c(=O)c3ccc(N4CCCN(C)CC4)nc3n3c2sc2ccccc23)cn1
Ans. 31

Qu. Please provide the recorded viability, T/C for Cc1[nH]c2ccccc2c1CCNCc1ccc(/C=C/C(=O)NO)cc1 + CN(C)c1ccc(Nc2c3ccc(NC(=O)CCN4CCCC4)cc3nc3cc(NC(=O)CCN4CCCC4)ccc23)cc1 , tested on 454973-116-R2-J3-PDC spheroids, viability, % test/control.
Ans. 65.6

Qu. Request - read-out viability, T/C | tested on 454973-116-R2-J3-PDC spheroids, viability, % test/control | compound CC[C@@]1(O)C(=O)OCc2c1cc1n(c2=O)Cc2cc3c(CN(C)C)c(O)ccc3nc2-1 + Cc1[nH]c2ccc(F)cc2c1-c1nc2c3cccnc3c3ncccc3c2[nH]1
Ans. 82.3

Qu. Field: viability, T/C (454973-116-R2-J3-PDC spheroids, viability, % test/control). Entry: CC[C@@]1(O)C(=O)OCc2c1cc1n(c2=O)Cc2cc3c(CN(C)C)c(O)ccc3nc2-1 + CN(C)c1ccc(Nc2c3ccc(NC(=O)CCN4CCCC4)cc3nc3cc(NC(=O)CCN4CCCC4)ccc23)cc1
Ans. 61.5

Qu. Provide the documented viability, T/C with 454973-116-R2-J3-PDC spheroids, viability, % test/control as the system for CCc1c2c(nc3ccc(O)cc13)-c1cc3c(c(=O)n1C2)COC(=O)[C@]3(O)CC + Cc1[nH]c2ccc(F)cc2c1-c1nc2c3cccnc3c3ncccc3c2[nH]1
Ans. 18.2

Qu. 454973-116-R2-J3-PDC spheroids, viability, % test/control / viability, T/C / Cn1ncnc1[C@H]1c2n[nH]c(=O)c3cc(F)cc(c23)N[C@@H]1c1ccc(F)cc1 + Cc1[nH]c2ccc(F)cc2c1-c1nc2c3cccnc3c3ncccc3c2[nH]1 : value?
Ans. 93

Qu. Could you share what viability, T/C was measured for CCc1c2c(nc3ccc(O)cc13)-c1cc3c(c(=O)n1C2)COC(=O)[C@]3(O)CC + Cc1cnc(CNC(=O)c2c(=O)c3ccc(N4CCCN(C)CC4)nc3n3c2sc2ccccc23)cn1 , tested on 454973-116-R2-J3-PDC spheroids, viability, % test/control?
Ans. 38.7

---

Can you tell me viability, T/C for the items I'm about to list?
system: 454973-116-R2-J3-PDC spheroids, viability, % test/control; assay: Anticancer human tumor 454973-116-R2-J3-PDC cell line growth inhibition [GQUAD]; conditions: second compound 1 µM; first compound 1 µM; stronger effect = lower value; spheroids with HUVEC and MSC;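 also: spheroids exposed to compounds for seven days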;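 as to viability, T/C: 100% = DMSO vehicle control viability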
Could you give me the number in %? Just the number is fine.

Qu. Return viability, T/C measured with 454973-116-R2-J3-PDC spheroids, viability, % test/control given this molecule: COc1cc(C2c3cc4c(cc3C(OC3OC5COC(C)OC5C(O)C3O)C3COC(=O)C23)OCO4)cc(OC)c1O (stereo not drawn) + CN(C)c1ccc(Nc2c3ccc(NC(=O)CCN4CCCC4)cc3nc3cc(NC(=O)CCN4CCCC4)ccc23)cc1
Ans. 39.4

Qu. 454973-116-R2-J3-PDC spheroids, viability, % test/control / viability, T/C / Cc1cccc(N(C)C(=O)C2C(O)CCN2c2nc(C)cc(C(F)(F)F)c2C#N)c1 (stereo not drawn) + Cc1cnc(CNC(=O)c2c(=O)c3ccc(N4CCCN(C)CC4)nc3n3c2sc2ccccc23)cn1 : value?
Ans. 65.2

Qu. Look up viability, T/C with 454973-116-R2-J3-PDC spheroids, viability, % test/control for this molecule: CCCS(=O)(=O)Nc1ccc(F)c(C(=O)c2c[nH]c3ncc(-c4ccc(Cl)cc4)cc23)c1F + Cc1cnc(CNC(=O)c2c(=O)c3ccc(N4CCCN(C)CC4)nc3n3c2sc2ccccc23)cn1
Ans. 66.4
